Cited source for all entries: ChEMBL document CHEMBL5058577

# Tested on: U2OS
# measurementProtocol: Multiplex assay against U2OS
# Format: toxicity, cell-based
# testSettings: human, 48 h, 10 µM, compound concentration 10 uM, replicate 2
# note: exactly 40% is not below, so it is NOT MET; use MET for Population Mitochondria Different-Phenotype (%) strictly under it

{"compound": "CSc1ccccc1N1CCN(CCCCCC(=O)NC2CCCc3ccccc32)CC1.Cl (stereo not given)", "experimentalSystem": "U2OS", "assignedClass": "NOT MET"}

## Input Population Mitochondria Different-Phenotype (%) strictly < 40% for this compound? COc1c(C)cc(NC(=O)c2nn(Cc3ccc(F)cc3)c3c2CN(C(=O)c2ccc[nH]2)C[C@]3(C)C(N)=O)cc1C
## Output NOT MET

## Input Moving on to O=S(=O)(c1ccccc1)c1cnc2c(N3CCNCC3)cccc2c1 [INTEPIRDINE]
## Output MET

## Input Moving on to CC(=O)NCCc1c(Cc2ccccc2)[nH]c2ccccc12
## Output MET
